Each recorded value in this set is attributed to patent US12421225B2.

Recorded pIC50 for the following compounds
Target Or Test System: human Nav1.7 (Homo sapiens (Human), UniProt Q15858)
Sequence (Q15858 whole entry): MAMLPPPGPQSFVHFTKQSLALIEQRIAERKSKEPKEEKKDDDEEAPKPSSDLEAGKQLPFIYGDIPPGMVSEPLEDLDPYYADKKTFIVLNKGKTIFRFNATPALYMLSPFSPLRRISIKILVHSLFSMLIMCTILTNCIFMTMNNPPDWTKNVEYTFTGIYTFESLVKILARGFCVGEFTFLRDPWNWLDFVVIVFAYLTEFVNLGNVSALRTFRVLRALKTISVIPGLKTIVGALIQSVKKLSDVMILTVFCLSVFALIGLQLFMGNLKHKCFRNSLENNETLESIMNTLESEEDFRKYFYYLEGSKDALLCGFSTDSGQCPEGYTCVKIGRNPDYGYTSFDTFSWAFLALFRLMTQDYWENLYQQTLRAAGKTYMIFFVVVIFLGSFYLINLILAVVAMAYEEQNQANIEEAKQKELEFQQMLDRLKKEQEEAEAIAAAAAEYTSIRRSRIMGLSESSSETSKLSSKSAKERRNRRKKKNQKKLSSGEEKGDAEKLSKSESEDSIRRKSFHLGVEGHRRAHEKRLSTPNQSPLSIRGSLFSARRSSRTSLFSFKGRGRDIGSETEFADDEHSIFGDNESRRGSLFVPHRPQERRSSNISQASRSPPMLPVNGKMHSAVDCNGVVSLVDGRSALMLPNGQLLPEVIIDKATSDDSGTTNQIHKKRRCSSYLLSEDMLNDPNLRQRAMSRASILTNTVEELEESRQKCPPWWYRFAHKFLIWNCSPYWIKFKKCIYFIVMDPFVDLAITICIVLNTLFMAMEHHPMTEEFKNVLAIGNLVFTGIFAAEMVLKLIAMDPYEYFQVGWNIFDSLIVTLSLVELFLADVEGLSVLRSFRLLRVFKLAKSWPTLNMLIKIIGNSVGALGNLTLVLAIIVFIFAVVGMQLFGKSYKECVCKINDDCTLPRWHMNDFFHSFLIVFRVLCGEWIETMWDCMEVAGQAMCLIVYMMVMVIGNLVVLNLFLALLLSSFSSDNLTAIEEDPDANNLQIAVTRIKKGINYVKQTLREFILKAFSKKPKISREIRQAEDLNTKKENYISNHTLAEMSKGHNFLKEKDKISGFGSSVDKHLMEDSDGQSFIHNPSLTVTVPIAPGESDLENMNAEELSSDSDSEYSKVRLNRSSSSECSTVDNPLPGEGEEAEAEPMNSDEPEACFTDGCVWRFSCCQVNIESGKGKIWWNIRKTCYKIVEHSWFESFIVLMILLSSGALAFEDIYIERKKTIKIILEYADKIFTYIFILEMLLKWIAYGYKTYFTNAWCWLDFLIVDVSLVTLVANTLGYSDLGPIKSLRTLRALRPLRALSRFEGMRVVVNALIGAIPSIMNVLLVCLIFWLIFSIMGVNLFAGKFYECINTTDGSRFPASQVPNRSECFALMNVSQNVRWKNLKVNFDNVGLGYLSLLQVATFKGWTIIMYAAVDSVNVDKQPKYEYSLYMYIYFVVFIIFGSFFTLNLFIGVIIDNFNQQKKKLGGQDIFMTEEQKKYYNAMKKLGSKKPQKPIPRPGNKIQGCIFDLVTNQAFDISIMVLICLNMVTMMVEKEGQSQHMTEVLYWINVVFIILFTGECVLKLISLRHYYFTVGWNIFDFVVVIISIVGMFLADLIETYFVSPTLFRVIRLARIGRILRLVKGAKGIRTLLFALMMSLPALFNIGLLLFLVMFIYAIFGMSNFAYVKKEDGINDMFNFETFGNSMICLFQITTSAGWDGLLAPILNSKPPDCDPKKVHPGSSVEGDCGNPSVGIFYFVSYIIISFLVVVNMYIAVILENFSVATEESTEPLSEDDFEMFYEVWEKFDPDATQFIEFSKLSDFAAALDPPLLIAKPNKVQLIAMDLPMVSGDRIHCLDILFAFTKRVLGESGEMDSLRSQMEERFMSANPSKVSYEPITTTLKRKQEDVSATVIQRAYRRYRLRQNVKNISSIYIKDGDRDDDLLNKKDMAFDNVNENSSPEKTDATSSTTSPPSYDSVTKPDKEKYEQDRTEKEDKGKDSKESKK
Sequence (Q07699 19-218 partner): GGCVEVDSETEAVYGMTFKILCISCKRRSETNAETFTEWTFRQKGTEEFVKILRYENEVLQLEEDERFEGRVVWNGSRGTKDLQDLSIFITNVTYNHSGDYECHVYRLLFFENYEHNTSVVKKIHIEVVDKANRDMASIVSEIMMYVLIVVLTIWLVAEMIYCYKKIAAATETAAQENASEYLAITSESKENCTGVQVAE
Assay Text: Human Nav1.7 inhibitory activity evaluation (automated patch clamp QPatch16X, HEK293A cells stably expressing human Nav1.7 and human Navβ1)
Type: cell-based
Condition Info: human Nav1.7, automated patch clamp
pIC50: −log10 of the molar value.

N#Cc1ccc2c(c1)C[C@@H](NC(=O)c1cc3n(n1)CCN(CC1CCC1)C3)CO2 [Example 498] = > 6.00
CC(C)CN1CCn2nc(C(=O)N[C@H]3COc4ccc(C#N)cc4C3)cc2C1 [Example 270] = > 5.00
N#Cc1ccc2c(c1)C[C@@H](NC(=O)c1cc3n(n1)CCC(OC(F)(F)F)CO3)CO2 (single isomer, unassigned) [253 (isomer B)] = > 5.00

Supply reported pIC50 belonging to this compound: O=C(N[C@H]1COc2ccc(CCOC(F)(F)F)cc2C1)c1cc2n(n1)CC(COC(F)F)O2 (stereo partly shown) [Example 462]
> 6.00

###

Target Or Test System: human Nav1.7 (Homo sapiens (Human), UniProt Q15858)
Assay Text: Human Nav1.7 inhibitory activity evaluation (automated patch clamp QPatch16X, HEK293A cells stably expressing human Nav1.7 and human Navβ1)
Format: cell-based
Condition Info: human Nav1.7, automated patch clamp
pIC50: −log10 of the molar value.
Recorded pIC50 for the following molecules

Take a look at these entries with their results.
N#Cc1ccc2c(c1)C(F)[C@@H](NC(=O)c1cc3n(n1)CCC(COCC1CC1)O3)CO2 (single isomer, unassigned) [617 (isomer A)] = > 6.00
O=C(NC1COc2cccc(Br)c2C1)c1cc2n(n1)CCC(c1ccccc1)O2 (stereo not shown) [Example 353] = > 5.00
CC(C)(C)CCC1Cn2cc(C(=O)N[C@H]3COc4ccccc4C3)nc2CN1 (stereo partly shown) [Example 328] = > 5.00

Now, please, on to the next molecule.
Supply reported pIC50 belonging to this molecule: O=C(N[C@H]1COc2ccc(C(F)(F)F)cc2C1O)c1cc2n(n1)CC(CCOCC(F)(F)F)O2 (stereo partly shown) [Example 588]
> 6.00

###

Recorded pIC50 for the following compounds
Target Or Test System: human Nav1.5 (Homo sapiens (Human))
Assay Text: Human Nav1.5 inhibitory activity evaluation (automated patch clamp QPatch16X, HEK293 cells stably expressing human Nav1.5)
Type: cell-based
Condition Info: human Nav1.5, automated patch clamp
pIC50: −log10 of the molar value.

Take a look at these entries with their results.
O=C(N[C@H]1COc2ccccc2C1)c1cc2n(n1)CCN(CC1CC(F)(F)C1)C2 = ≤ 5.52
O=C(N[C@H]1COc2ccc(CCN3CC(F)(F)C3)cc2C1)c1cc2n(n1)CCC(C(F)(F)F)O2 (stereo partly drawn) = ≤ 5.52
COc1ncc(-c2ccc3c(c2)C[C@@H](NC(=O)c2cc4n(n2)CC(CCOCC2CC2)O4)CO3)cn1 (single isomer, unassigned) [204 (isomer B)] = 5.52 to 6.00
O=C(N[C@H]1COc2ccc(CCOC(F)F)cc2C1)c1cc2n(n1)CCC(COC(F)F)O2 (single isomer, unassigned) [142 (isomer B)] = ≤ 5.52
O=C(N[C@H]1COc2ccc(CC(F)F)cc2C1)c1cc2n(n1)CCC(C(F)(F)F)O2 (single isomer, unassigned) [173 (isomer A)] = ≤ 5.52

Supply reported pIC50 belonging to this compound: O=C(N[C@H]1COc2ccc(Cl)cc2C1)c1cc2n(n1)CC(CNCC(F)(F)F)O2 (stereo partly drawn)
5.52 to 6.00

###

Recorded IC50 for the following compounds
Target Or Test System: human Nav1.7 (Homo sapiens (Human))
Assay Text: Human Nav1.7 inhibitory activity evaluation (automated patch clamp QPatch16X, HEK293A cells stably expressing human Nav1.7 and human Navβ1)
Type: cell-based
Condition Info: HEK293A cells stably expressing human Nav1.7 and human Navβ1, automated patch clamp QPatch16X

N#Cc1ccc2c(c1)C[C@@H](NC(=O)c1cc3n(n1)CCC(COC(F)(F)F)O3)CO2 (mixture of isomers) [Example 133] = < 1 µM
O=C(N[C@H]1COc2ccc(-c3ccccn3)cc2C1)c1cc2n(n1)CCC(COCC(F)(F)F)O2 (stereo partly drawn) [Example 130] = < 10 µM
O=C(N[C@H]1COc2ccccc2C1)c1nc2n(c1-c1ccccc1)CCOC2 [Example 64] = < 10 µM
O=C(N[C@H]1COc2ccc(-c3ccccn3)cc2C1)c1cc2n(n1)CCC(c1ccccc1F)O2 (stereo partly drawn) [Example 81] = < 1 µM

Supply reported IC50 belonging to this compound: O=C(N[C@H]1COc2ccccc2C1)c1nc2n(c1I)CC(C(F)(F)F)CC2 (stereo partly drawn) [Example 14]
< 10 µM

Supply reported IC50 belonging to this compound: CCCC1CCn2nc(C(=O)N[C@H]3COc4ccc(C#N)cc4C3)cc2O1 (stereo partly drawn) [Example 94]
< 1 µM

###

Target Or Test System: human Nav1.7 (Homo sapiens (Human), UniProt Q15858)
Assay Text: Human Nav1.7 inhibitory activity evaluation (automated patch clamp QPatch16X, HEK293A cells stably expressing human Nav1.7 and human Navβ1)
Assay type: cell-based
Condition Info: human Nav1.7, automated patch clamp
pIC50: −log10 of the molar value.
Metric: pIC50

Take a look at these entries with their results.
CN1Cc2nc(C(=O)N3CCC(F)(c4ccccc4Cl)C3)cn2CC1c1ccccc1 (centres unmarked) = > 6.00
O=C(N[C@H]1COc2cccc(Cl)c2C1)c1cc2n(n1)CCC(COCC(F)(F)F)O2 (some centres unmarked) = > 6.00
O=C(N[C@H]1COc2ccc(-c3cnccn3)cc2C1)c1cc2n(n1)CC(CCOC1CCC1)O2 (some centres unmarked) = > 6.00
CN1Cc2nc(C(=O)N3CCC(Oc4cccc(C(F)(F)F)n4)C3)cn2CC1c1cccc(OC(F)(F)F)c1 (centres unmarked) = > 5.00
O=C(N[C@H]1COc2ccccc2C1)c1cn2c(n1)CCC(OCCOC(F)(F)F)C2 (some centres unmarked) = > 5.00

Supply reported pIC50 belonging to this molecule: COC1c2cc(C(F)(F)F)ccc2OC[C@@H]1NC(=O)c1cc2n(n1)CC(CCOCC(F)(F)F)O2 (some centres unmarked)
> 6.00

Supply reported pIC50 belonging to this molecule: O=C(N[C@H]1COc2ccc(C(F)(F)F)cc2C1OC(F)(F)F)c1cc2n(n1)CCC(C(F)F)O2 (some centres unmarked)
> 6.00

Supply reported pIC50 belonging to this molecule: "Cn1ccc(-c2c(C(=O)N[C@H]3COc4ccc(C(F)(F)F)cc4C3)nc3n2CCOC3)n1"
> 6.00

###

Target Or Test System: UniProtKB Q15858
Assay Text: Human Nav1.7 inhibitory activity evaluation (automated patch clamp QPatch16X, HEK293A cells stably expressing human Nav1.7 and human Navβ1)
Format: cell-based
Condition Info: human Nav1.7, automated patch clamp
Metric: IC50

Take a look at these entries with their results.
O=C(N[C@H]1COc2ccc(CC(F)F)cc2C1)c1cc2n(n1)CC(CCOC(F)F)O2 (single isomer, unassigned) [219 (isomer B)] = < 1000 nM
O=C(N[C@H]1COc2ccc(Cl)cc2C1)c1cc2n(n1)CCC(OCC(F)(F)F)CO2 (single isomer, unassigned) [256 (isomer B)] = < 1000 nM

Now, please, on to the next molecule.
# return IC50 for O=C(N[C@H]1COc2ccc(C(F)(F)F)cc2C1O)c1cc2n(n1)CCC(COCC(F)(F)F)CO2 (single isomer, unassigned) , test system: UniProtKB Q15858
< 10000 nM

###

Target Or Test System: human Nav1.5 (Homo sapiens (Human), UniProt Q14524)
Sequence (Q14524 whole entry): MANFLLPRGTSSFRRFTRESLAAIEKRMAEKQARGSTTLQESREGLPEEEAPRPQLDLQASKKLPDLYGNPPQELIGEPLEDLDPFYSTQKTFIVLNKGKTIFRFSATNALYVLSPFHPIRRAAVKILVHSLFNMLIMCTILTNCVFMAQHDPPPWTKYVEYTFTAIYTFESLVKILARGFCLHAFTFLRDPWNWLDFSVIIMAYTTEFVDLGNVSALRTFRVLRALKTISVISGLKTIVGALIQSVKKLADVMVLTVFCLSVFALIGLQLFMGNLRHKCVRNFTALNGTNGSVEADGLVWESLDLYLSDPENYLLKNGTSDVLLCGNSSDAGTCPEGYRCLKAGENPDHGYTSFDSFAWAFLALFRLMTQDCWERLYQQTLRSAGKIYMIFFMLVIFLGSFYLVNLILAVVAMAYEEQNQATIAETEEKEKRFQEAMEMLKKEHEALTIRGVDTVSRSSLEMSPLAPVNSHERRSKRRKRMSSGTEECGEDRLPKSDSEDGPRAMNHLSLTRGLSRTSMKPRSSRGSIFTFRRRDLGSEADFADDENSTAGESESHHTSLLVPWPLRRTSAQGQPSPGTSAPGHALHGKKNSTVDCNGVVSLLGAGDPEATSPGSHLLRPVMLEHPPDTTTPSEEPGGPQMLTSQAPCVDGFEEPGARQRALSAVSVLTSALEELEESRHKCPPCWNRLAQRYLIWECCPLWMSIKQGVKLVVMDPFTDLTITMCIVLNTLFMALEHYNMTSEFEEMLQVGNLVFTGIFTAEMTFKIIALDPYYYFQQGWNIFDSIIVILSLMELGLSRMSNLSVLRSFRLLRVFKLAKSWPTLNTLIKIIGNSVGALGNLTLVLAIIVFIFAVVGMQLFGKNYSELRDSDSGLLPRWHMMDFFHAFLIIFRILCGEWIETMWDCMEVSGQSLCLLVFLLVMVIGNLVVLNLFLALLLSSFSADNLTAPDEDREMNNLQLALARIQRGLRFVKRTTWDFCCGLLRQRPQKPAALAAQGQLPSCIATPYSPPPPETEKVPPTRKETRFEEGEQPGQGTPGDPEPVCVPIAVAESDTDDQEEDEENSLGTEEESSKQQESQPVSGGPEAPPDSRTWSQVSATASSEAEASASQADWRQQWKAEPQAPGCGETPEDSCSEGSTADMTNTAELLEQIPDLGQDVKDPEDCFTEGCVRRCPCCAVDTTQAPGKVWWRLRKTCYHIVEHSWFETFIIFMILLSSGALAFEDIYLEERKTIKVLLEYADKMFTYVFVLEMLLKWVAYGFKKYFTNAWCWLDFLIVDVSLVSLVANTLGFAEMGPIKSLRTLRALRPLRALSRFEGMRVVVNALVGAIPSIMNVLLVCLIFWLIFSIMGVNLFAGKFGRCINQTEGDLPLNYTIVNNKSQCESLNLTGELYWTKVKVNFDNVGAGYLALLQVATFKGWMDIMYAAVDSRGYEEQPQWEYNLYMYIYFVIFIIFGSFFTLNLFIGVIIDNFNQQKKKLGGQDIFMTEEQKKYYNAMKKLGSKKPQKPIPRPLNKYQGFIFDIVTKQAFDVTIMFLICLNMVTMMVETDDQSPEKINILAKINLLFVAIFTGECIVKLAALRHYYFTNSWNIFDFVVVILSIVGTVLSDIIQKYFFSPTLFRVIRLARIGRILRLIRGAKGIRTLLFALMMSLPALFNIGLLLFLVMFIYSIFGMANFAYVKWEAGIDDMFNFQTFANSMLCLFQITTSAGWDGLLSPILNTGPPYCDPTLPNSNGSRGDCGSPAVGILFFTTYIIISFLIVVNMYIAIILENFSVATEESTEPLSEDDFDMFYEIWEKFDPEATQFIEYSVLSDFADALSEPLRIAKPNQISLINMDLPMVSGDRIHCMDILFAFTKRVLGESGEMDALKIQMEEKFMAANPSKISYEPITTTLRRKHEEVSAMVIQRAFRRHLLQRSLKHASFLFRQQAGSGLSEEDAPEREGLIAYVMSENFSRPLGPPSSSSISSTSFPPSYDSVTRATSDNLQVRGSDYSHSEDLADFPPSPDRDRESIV
Assay Text: Human Nav1.5 inhibitory activity evaluation (automated patch clamp QPatch16X, HEK293 cells stably expressing human Nav1.5)
Type: cell-based
Condition Info: human Nav1.5, automated patch clamp
Recorded IC50 for the following compounds

Take a look at these entries with their results.
O=C(N[C@H]1COc2ccc(-c3cnccn3)cc2C1)c1cc2n(n1)CCC(COCC1CC1)O2 (stereo partly shown) = ≥ 3000 nM
O=C(N[C@H]1COc2ccc(CC(F)F)cc2C1)c1cc2n(n1)CCC(C(F)(F)F)O2 (stereo partly shown) [Example 172] = ≥ 3000 nM
O=C(NC1COc2ccc(F)cc2C1)c1cc2n(n1)CCC(c1ccccc1)O2 (stereo not shown) = ≥ 3000 nM
O=C(N[C@H]1COc2ccc(Cl)cc2C1)c1cc2n(n1)CC(CCNCC(F)(F)F)O2 (stereo partly shown) [Example 225] = 1000 to 3000 nM
O=C(N[C@H]1COc2ccc(CC(F)(F)F)cc2C1)c1nc2n(c1-c1ccccn1)CCOC2 = 1000 to 3000 nM
O=C(N[C@H]1COc2ccccc2C1)c1cc2n(n1)CCN(CC(C1CC1)C1CC1)C2 = ≥ 3000 nM
N#Cc1ccc2c(c1)C[C@@H](NC(=O)c1cc3n(n1)CC(CCOC(F)(F)F)O3)CO2 (stereo partly shown) [Example 208] = < 1000 nM
N#Cc1ccc2c(c1)C[C@@H](NC(=O)c1cc3n(n1)CC(CCSCC(F)(F)F)O3)CO2 (single isomer, unassigned) [244 (isomer A)] = 1000 to 3000 nM
COC1c2cc(C(F)(F)F)ccc2OC[C@@H]1NC(=O)c1cc2n(n1)CCC(C(F)F)O2 (stereo partly shown) = ≥ 3000 nM
O=C(N[C@H]1COc2ccc(CC(F)F)cc2C1)c1cc2n(n1)CC(COC(F)(F)F)O2 (stereo partly shown) [Example 197] = ≥ 3000 nM

# return IC50 for O=C(N[C@H]1COc2ccc(COCC(F)(F)F)cc2C1)c1cc2n(n1)CC(CCOC(F)F)O2 (single isomer, unassigned) [215 (isomer A)] , test system: human Nav1.5 (Homo sapiens (Human), UniProt Q14524)
1000 to 3000 nM

# return IC50 for "O=C(N[C@H]1COc2ccc(C(F)(F)F)cc2C1)c1cc2n(n1)CCN(CCC(F)(F)F)C2" , test system: human Nav1.5 (Homo sapiens (Human), UniProt Q14524)
1000 to 3000 nM

# return IC50 for "O=C(N[C@H]1COc2ccc(C(F)(F)F)cc2C1)c1nn2c(c1CCc1ccccn1)COCC2" , test system: human Nav1.5 (Homo sapiens (Human), UniProt Q14524)
1000 to 3000 nM
